biological target: UniProt P0DTD1; settings: 20.0 µM
REPORTED METRIC: inhibition (%)
// units = %; emit number, no label

INSERT INTO results (compound, reported_metric, observed_result) VALUES
  ('C=CC(=O)N(c1ccc(N(C)C)c(C)c1)C(C(=O)NC(C)(C)C)c1cccnc1 (stereo not given)', 'inhibition', 0),
  ('CC1CN(Cc2cccc(Cl)c2)CCN1C(=O)CCl (stereo not given)', 'inhibition', 94.6),
  ('C=CC(=O)N(c1ccc(C(C)(C)C)cc1)C(C(=O)NCC1CCCO1)c1cccnc1 (stereo not given)', 'inhibition', 0),
  ('C=CC(=O)N(c1ccc(C(C)C)nc1)C(C(=O)Nc1c(C)cccc1CC)c1cccnc1 (stereo not given)', 'inhibition', 0),
  ('C=CC(=O)N(c1ccc(C(C)(C)C)cc1)C(C(=O)NCc1cccnc1)c1cccnc1 (stereo not given)', 'inhibition', 18.2),
  ('C=CC(=O)Nc1cc(C(=O)NC[C@H](Cc2ccccc2)c2ccccn2)ccc1O (stereo in doubt)', 'inhibition', 0),
  ('CC(=O)N1CCN(CC(=O)Nc2cccc(S(N)(=O)=O)c2)CC1', 'inhibition', 0),
  ('Cc1ccc(S(=O)(=O)NC2CCN(C(=O)CCl)CC2)cc1', 'inhibition', 54.9);

Response field inhibition (UniProt P0DTD1) for item C=CC(=O)N(c1ccc(C(C)(C)C)cc1)C(C(=O)NCCOC)c1cccnc1 (stereo not given) : 25.7

Response field inhibition (UniProt P0DTD1) for item `O=C(CC(=O)N1CCOCC1)NC1CCCCC1` : 0

###

target: SARS-CoV-2 Main Protease (SARS-CoV-2); conditions: 50.0 µM
Reported inhibition values for a set of compounds
Your reply should be a number followed by the unit it is expressed in.

In plain terms, `O=C(CCl)N1CCN(C2(c3cccc(Cl)c3)CC2)CC1` has a documented inhibition of 41.2%

In plain terms, `CCOc1ccccc1/C=C1/C(=O)NC(=O)c2ccccc21` has a documented inhibition of 39.6%

In plain terms, `Cc1cc(-c2nc3ccccc3[nH]2)ccc1O` has a documented inhibition of -3.73%

In plain terms, `Cc1oncc1C(=O)Nc1ccc(C(F)(F)F)cc1` has a documented inhibition of 0%

In plain terms, `CC(=O)NCCc1cn(CC(=O)N2CCOCC2)c2ccccc12` has a documented inhibition of 0%

In plain terms, CCN(CC1COc2ccccc2O1)C(=O)c1cc(=O)[nH]c2ccc(Cl)cc12 (stereo unspecified) has a documented inhibition of 0%

###

conditions: 20.0 µM
REPORTED METRIC: relative solubility at 20 uM
When you answer, write just the number.

For orientation, consider the following solved cases.
INSERT INTO measurements (compound, reported_metric, observed_result) VALUES
  ('CC(NC(=O)c1ccccc1OC1CCCCC1)c1cnccn1 (stereo unspecified)', 'relative solubility at 20 uM', 1),
  ('CCNc1ncc(C#N)cc1CN1CCN(C(=O)CCl)CC1', 'relative solubility at 20 uM', 0.98),
  ('C=CC(=O)N(c1ccc(S(F)(F)(F)(F)F)cc1)C(C(=O)Nc1ccc(OC)cc1)c1cccnc1 (stereo unspecified)', 'relative solubility at 20 uM', 0.83),
  ('Cc1ccncc1NC(=O)Cc1cccc(C#N)c1', 'relative solubility at 20 uM', 1),
  ('C=CC(=O)N(c1ccc2ncsc2c1)C(C(=O)Nc1ccc(OC)cc1C)c1cccnc1 (stereo unspecified)', 'relative solubility at 20 uM', 0.94),
  ('O=C(CCl)N1CCN(S(=O)(=O)c2c(F)cccc2F)CC1', 'relative solubility at 20 uM', 0.96),
  ('O=C(Cc1cccnc1)Nc1cc(Cl)ccc1O', 'relative solubility at 20 uM', 1.01),
  ('O=C(CCl)N1CCN(Cc2cc(Cl)cc(Cl)c2)CC1', 'relative solubility at 20 uM', 1);

In plain terms, Cc1cccc(C)c1OCC(=O)N[C@@H](Cc1ccccc1)[C@@H](O)C[C@H](Cc1ccccc1)NC(=O)[C@H](C(C)C)N1CCCNC1=O (stereo in doubt) has a documented relative solubility at 20 uM of 0.83

In plain terms, `O=C(CNc1c(-c2ccccc2)nc2ccccn12)N/N=C/c1cccc2ccccc12` has a documented relative solubility at 20 uM of 0.5

In plain terms, `O=C(c1cc(=O)[nH]c2ccccc12)N1CCN(c2ccccc2)CC1` has a documented relative solubility at 20 uM of 1

###

Reported inhibition values for a set of molecules
target: SARS-CoV-2 Main Protease (SARS-CoV-2) (UniProt P0DTD1); conditions: 20.0 µM
// units = %; emit number, no label

INSERT INTO results (molecule, target_under_test, reported_metric, observed_result) VALUES
  ('Cc1[nH]c2ncnc(NC(=O)c3cc4ccccc4c(=O)o3)c2c1C', 'SARS-CoV-2 Main Protease (SARS-CoV-2) (UniProt P0DTD1)', 'inhibition', -7.32),
  ('O=C(Cc1cc(Cl)c2c(c1)OCCO2)Nc1cnccc1-c1ccccc1', 'SARS-CoV-2 Main Protease (SARS-CoV-2) (UniProt P0DTD1)', 'inhibition', -45.1),
  ('CNS(=O)(=O)Cc1ccc2[nH]cc(CCN(C)C)c2c1', 'SARS-CoV-2 Main Protease (SARS-CoV-2) (UniProt P0DTD1)', 'inhibition', 4.66);

In plain terms, C=CC(=O)N(c1ccc(C(C)(C)C)cc1)C(C(=O)NCCc1cccc(F)c1)c1cncc(C)c1 (stereo unspecified) has a documented inhibition of 49

In plain terms, C=CC(=O)N(c1ccc(C(C)(C)C)cc1)C(C(=O)Nc1ccc2c(c1)OCCO2)c1cccnc1 (stereo unspecified) has a documented inhibition of 2.83

In plain terms, CCCN(CC1COc2ccccc2O1)C(=O)c1cc(=O)[nH]c2ccc(Cl)cc12 (stereo unspecified) has a documented inhibition of -8.21

In plain terms, C=CC(=O)N(c1ccc(SC)cc1)C(C(=O)Nc1ccc(OC)cc1)c1cccnc1 (stereo unspecified) has a documented inhibition of 13.5

In plain terms, `Cc1[nH]c2ncnc(NC(=O)C3CCN(c4ccc(Cl)cn4)CC3)c2c1C` has a documented inhibition of -8.15

In plain terms, `CC(C)Cn1cc(NC(=O)NCCc2ccc(Cl)cc2)c2ccccc2c1=O` has a documented inhibition of 22.5

In plain terms, `Cc1nnc(NC(=O)Cc2cccc(Cl)c2F)s1` has a documented inhibition of 1.02

In plain terms, `O=C(NCc1cccc(C(=O)N2CCOCC2)c1)c1cnc2c(c1)c(=O)[nH]c(=O)n2Cc1ccccc1` has a documented inhibition of 2.69

###

Reported relative solubility at 100 uM values for a set of compounds
conditions: 100.0 µM
When you answer, write just the number.

For orientation, consider the following solved cases.
INSERT INTO results (compound, observed_result) VALUES
  ('O=C(CCl)N1CCN(S(=O)(=O)c2cccs2)CC1', 1),
  ('Cc1ncncc1NC(=O)C(c1cccc(Cl)c1)C(C)C (stereo unspecified)', 0.99),
  ('Cc1ccncc1NC(=O)C1(c2cccc(Cl)c2)CC1', 1),
  ('C=CC(=O)N(c1ccc(C(C)(C)C)cc1)C(C(=O)NCCSC)c1cccnc1 (stereo unspecified)', 0.99),
  ('O=C(c1cc(=O)[nH]c2ccc(F)cc12)N1CCN(S(=O)(=O)c2ccccc2)CC1', 0.98);

Attention now shifts to the item below.
In plain terms, `COc1cccc(N2CCN(C(=O)c3cc(=O)[nH]c4ccccc34)CC2)c1` has a documented relative solubility at 100 uM of 0.95

###

Reported inhibition values for a set of compounds
target: SARS-CoV-2 Main Protease (SARS-CoV-2) (UniProt P0DTD1); conditions: 50.0 µM
// units = %; emit number, no label

For orientation, consider the following solved cases.
INSERT INTO measurements (compound, target_under_test, observed_result) VALUES
  ('NS(=O)(=O)c1ccc(N2CCC(Nc3ccccc3)CC2)cc1', 'SARS-CoV-2 Main Protease (SARS-CoV-2) (UniProt P0DTD1)', 22),
  ('Cc1ccncc1NC(=O)CCNC(=O)c1ccccc1F', 'SARS-CoV-2 Main Protease (SARS-CoV-2) (UniProt P0DTD1)', 0);

In plain terms, `CC(=O)NCCc1c[nH]c2c(NCc3ccc4nc[nH]c4c3)cc(F)cc12` has a documented inhibition of -4.42

In plain terms, CO[C@@H](C)C(=O)Nc1cnccc1C (stereo in doubt) has a documented inhibition of 6.67

In plain terms, `O=C(c1ccccc1)N1CCN(C(=O)C2CCOCC2)CC1` has a documented inhibition of 5.34

In plain terms, `O=C(Cc1cccc(Cl)c1)Nc1cccnc1` has a documented inhibition of 52.4

In plain terms, `Cc1ccc2nc(-c3ccc(N)cc3)sc2c1S(=O)(=O)O` has a documented inhibition of 0
